- measured.on: HLA-A*31:01
- method: IEDB peptide-MHC binding, purified MHC/direct/fluorescence; filed as Kd, often an IC50 or EC50 that approximates it; bounds were set here for any values at or beyond the usual limits of such assays
- applied.conditions: source organism: Influenza A virus (A/chicken/Hubei/wm/1997(H5N1))
pKd: −log10 of the molar value.
measurement.type: pKd

>>> observed_value("EKPKFLPDL")
"≤ 4.70"

* * *

- measured.on: HLA-A*30:01
- method: IEDB peptide-MHC binding, purified MHC/competitive/fluorescence; filed as Kd, often an IC50 or EC50 that approximates it; bounds were set here for any values at or beyond the usual limits of such assays
- applied.conditions: source organism: Human immunodeficiency virus 1
pKd: −log10 of the molar value.
measurement.type: pKd

>>> observed_value("RSLFNTIAVLY")
"≤ 4.70"
>>> observed_value("EVKSLFNTV")
"≤ 4.70"
>>> observed_value("GTEEIRSLF")
4.96
